Origin of measurements: patent US20180334496A1

target: T1, serum purified human Complement Factor D (human, UniProt P00746 26-253); experiment: SPR Biacore, 37 C
T1 construct: Serum purified protein flowed over the captured antibodies; also called CFD; human CFD
T1 sequence (P00746 26-253): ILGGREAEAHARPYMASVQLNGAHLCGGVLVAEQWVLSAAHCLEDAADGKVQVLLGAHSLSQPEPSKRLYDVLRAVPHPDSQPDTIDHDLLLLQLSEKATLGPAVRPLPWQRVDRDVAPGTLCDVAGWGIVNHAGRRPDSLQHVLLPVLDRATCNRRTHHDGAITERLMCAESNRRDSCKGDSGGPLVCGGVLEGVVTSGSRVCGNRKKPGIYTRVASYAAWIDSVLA
Listed here are binders together with their documented kon.
API: value field is a number in M⁻¹ s⁻¹; no unit string.

Guide cases for kon, answers given:
binder	propertyLabel	assayResult
31S34I54I59D / 54R101V (antibody, V domains shown, KCD119 TAF variant) VH: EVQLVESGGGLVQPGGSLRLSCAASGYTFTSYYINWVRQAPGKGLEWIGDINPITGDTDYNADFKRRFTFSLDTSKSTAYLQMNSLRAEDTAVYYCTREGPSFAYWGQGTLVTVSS VL: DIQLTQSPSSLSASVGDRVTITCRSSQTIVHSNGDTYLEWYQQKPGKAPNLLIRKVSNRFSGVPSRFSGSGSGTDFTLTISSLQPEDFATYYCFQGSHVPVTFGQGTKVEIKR	kon	2.46e+07
54I59D / 54R101V (antibody, V domains shown, KCD119 TAF variant) VH: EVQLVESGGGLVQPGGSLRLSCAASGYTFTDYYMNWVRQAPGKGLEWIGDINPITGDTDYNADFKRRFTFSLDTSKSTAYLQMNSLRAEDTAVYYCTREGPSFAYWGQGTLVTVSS VL: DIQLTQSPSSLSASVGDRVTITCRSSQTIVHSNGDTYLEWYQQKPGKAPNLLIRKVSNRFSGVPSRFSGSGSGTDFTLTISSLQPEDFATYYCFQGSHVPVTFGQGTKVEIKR	kon	3.09e+07
31S54I59D / 54R101V (antibody, V domains shown, KCD119 TAF variant) VH: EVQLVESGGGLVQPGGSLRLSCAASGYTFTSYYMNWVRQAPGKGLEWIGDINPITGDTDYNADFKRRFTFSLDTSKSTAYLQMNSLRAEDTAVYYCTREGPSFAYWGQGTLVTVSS VL: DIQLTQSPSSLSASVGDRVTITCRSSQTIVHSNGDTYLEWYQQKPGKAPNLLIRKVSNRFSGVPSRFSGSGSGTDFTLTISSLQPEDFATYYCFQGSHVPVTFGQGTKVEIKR	kon	2.78e+07

Let us examine a further case.
# input For 34I54I59D / 54R101V (antibody, V domains shown, KCD119 TAF variant) VH: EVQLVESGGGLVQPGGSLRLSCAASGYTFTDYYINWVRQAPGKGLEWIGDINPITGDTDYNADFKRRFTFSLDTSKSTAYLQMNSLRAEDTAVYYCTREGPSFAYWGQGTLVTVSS VL: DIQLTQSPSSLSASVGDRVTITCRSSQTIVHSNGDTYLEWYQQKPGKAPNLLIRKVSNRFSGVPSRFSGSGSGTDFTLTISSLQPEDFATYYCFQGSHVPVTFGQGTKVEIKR , what is its reported kon?
# output 3.27e+07
